Taken from PubChem BioAssay AID330.

Tested on: P388 leukemia ip, CD2F1 mice, survival T/C
PROTOCOL_SUMMARY: NCI In Vivo Anticancer Drug Screen. Data for tumor model P388 Leukemia (intraperitoneal) in CD2F1 (CDF1) mice
ASSAY_SETUP: endpoint: median survival time; dose: 25.0 mg/kg/injection; schedule: Q01DX009 (ip); vehicle: saline with Tween-80
Toxic doses and inconclusive results are not listed. The calls were made as follows: active = survival T/C of 150% or more; inactive = T/C below 125% in these data.
One label from this list, please: active, inactive

{"MOLECULE": "COc1ccc(Oc2c(OC)cc(NCc3ccc(CN)cc3)c3ncccc23)cc1", "DISCRETE_LABEL": "inactive"}
{"MOLECULE": "O=[N+]([O-])c1ccc([I+]c2ccccc2)cc1", "DISCRETE_LABEL": "active"}

Assay outcome for `CNc1c(F)c(C#N)c(F)c(F)c1C#N` : what was it?
inactive

Assay outcome for C(=C\C1CC2CCCN2O1)/c1ccccc1 (centres undefined) : what was it?
inactive

Assay outcome for CCN(CC)Cc1cc(C(CC(=O)c2ccccc2)S(=O)(=O)c2ccc(C)cc2)ccc1O (centres undefined) : what was it?
inactive

Assay outcome for `CC(=O)Nc1nc(NC(C)=O)c(N=O)c(NC(C)=O)n1` : what was it?
inactive

Assay outcome for `CCCCCOc1ccc(C(=O)/C(Br)=C/C(=O)O)cc1` : what was it?
inactive

====

System: P388 leukemia ip, CD2F1 mice, survival T/C
PROTOCOL_SUMMARY: NCI In Vivo Anticancer Drug Screen. Data for tumor model P388 Leukemia (intraperitoneal) in CD2F1 (CDF1) mice
ASSAY_SETUP: endpoint: median survival time; dose: 100.0 mg/kg/injection; schedule: Q04DX002 (ip); vehicle: saline with Tween-80; higher = longer survival
Toxic doses and inconclusive results are not listed.
REPORTED_PROPERTY: T/C

Recorded results for 4 compounds are shown here.
{"COMPOUND": "CC(=O)NC1=C(O)C2C(c3ccccc3)C(C#N)C(=O)N2C1=O (stereo not given)", "T/C": "100 % of control"}
{"COMPOUND": "COc1cc2c3c(c1O)-c1cc4c(cc1CC3N(C)CC2)OCO4 (stereo not given)", "T/C": "97 % of control"}
{"COMPOUND": "NC(=Nc1ccc(Cl)cc1)N/N=C/c1ccc(Cl)c(Cl)c1", "T/C": "106 % of control"}
{"COMPOUND": "C=C(/C=C/C1OC2OC(C)(C)OC2C1OC)OP(=O)(OCC)OCC (stereo not given)", "T/C": "103 % of control"}

Moving on to another compound below.
Provide T/C value for the following compound: `NC(=O)c1[nH]cnc1O`
100 % of control

====

Test system: P388 leukemia ip, CD2F1 mice, survival T/C
PROTOCOL_SUMMARY: NCI In Vivo Anticancer Drug Screen. Data for tumor model P388 Leukemia (intraperitoneal) in CD2F1 (CDF1) mice
ASSAY_SETUP: endpoint: median survival time; dose: 50.0 mg/kg/injection; schedule: Q01DX009 (ip); vehicle: saline; higher = longer survival
Experimental: The antitumor activity of compounds was measured in mice bearing transplantable tumors. Survival or tumor size were measured and the results are expressed as the measurement made in the treated group (T) divided by the measurement made in the vehicle treated control group (C). The tumor model used in this assay is P388 Leukemia (intraperitoneal) in CD2F1 (CDF1) mice
Inconclusive results and toxic doses are left out.
REPORTED_PROPERTY: T/C

Recorded results for 3 molecules are shown here.
{"MOLECULE": "CCn1c(=O)c2c(ncn2C)n(C)c1=O", "ASSAYED_SYSTEM": "P388 leukemia ip, CD2F1 mice, survival T/C", "REPORTED_PROPERTY": "T/C", "VAL": "100 % of control"}
{"MOLECULE": "NC(=O)c1ccc([N+](=O)[O-])o1", "ASSAYED_SYSTEM": "P388 leukemia ip, CD2F1 mice, survival T/C", "REPORTED_PROPERTY": "T/C", "VAL": "95 % of control"}
{"MOLECULE": "S=C(S)N1CCCC1", "ASSAYED_SYSTEM": "P388 leukemia ip, CD2F1 mice, survival T/C", "REPORTED_PROPERTY": "T/C", "VAL": "100 % of control"}

Moving on to another molecule below.
Provide T/C value for the following molecule: O=C1C=CC2=C3c4cc(O)c(O)cc4CC3(O)COC2=C1O (centres undefined)
108 % of control

====

Test system: P388 leukemia ip, CD2F1 mice, survival T/C
PROTOCOL_SUMMARY: NCI In Vivo Anticancer Drug Screen. Data for tumor model P388 Leukemia (intraperitoneal) in CD2F1 (CDF1) mice
ASSAY_SETUP: endpoint: median survival time; dose: 50.0 mg/kg/injection; schedule: Q01DX009 (ip); vehicle: saline with Tween-80; higher = longer survival
Toxic doses and inconclusive results are not listed.
T/C values by entry

Recorded results for 7 compounds are shown here.
{"COMPOUND": "Oc1c(CN2CCCCC2)ccc2cccnc12", "VAL": "113 % of control"}
{"COMPOUND": "NC(CO)C(=O)O (stereo not drawn)", "VAL": "114 % of control"}
{"COMPOUND": "CC(NC(=O)OCc1ccccc1)C(=O)Oc1cc(Cl)c(Cl)cc1Cl (stereo not drawn)", "VAL": "109 % of control"}
{"COMPOUND": "NS(=O)(=O)/C=C(\\Cl)c1ccccc1", "VAL": "94 % of control"}
{"COMPOUND": "c1ccc(-c2nnn(-c3ccccc3)n2)cc1", "VAL": "91 % of control"}
{"COMPOUND": "CCOC(=O)C(F)C(Br)C(=O)OCC (stereo not drawn)", "VAL": "117 % of control"}
{"COMPOUND": "Cc1cccc2c(C(=O)O)cc(-c3ccc(Cl)cc3)nc12", "VAL": "108 % of control"}

Provide T/C value for the following compound: COC(=O)C(Br)C(Br)c1ccccc1 (stereo not drawn)
110 % of control

====

Tested on: P388 leukemia ip, CD2F1 mice, survival T/C
PROTOCOL_SUMMARY: NCI In Vivo Anticancer Drug Screen. Data for tumor model P388 Leukemia (intraperitoneal) in CD2F1 (CDF1) mice
ASSAY_SETUP: endpoint: median survival time; dose: 100.0 mg/kg/injection; schedule: Q01DX005 (ip); vehicle: Klucel (hydroxypropylcellulose) (HPC); higher = longer survival
Toxic doses and inconclusive results are not listed. Peptide text beside a SMILES is read from it. * marks the point of attachment. Boc = CC(C)(C)OC(=O)*; OtBu = CC(C)(C)O*
T/C values by entry

Recorded results for 6 molecules are shown here.
{"MOLECULE": "CCC(C)n1c(C)nc2ncn(-c3ccccc3)c2c1=O (stereo unspecified)", "T/C": "103 % of control"}
{"MOLECULE": "O=C1NC(=O)C2(CCCc3ccccc32)N1 (stereo unspecified)", "T/C": "104 % of control"}
{"MOLECULE": "CC(N)C(=O)NC(Cc1ccc(O)cc1)C(N)=O (stereo not drawn) (H-Ala-Tyr-NH2; configuration not given here)", "T/C": "105 % of control"}
{"MOLECULE": "CNC(=O)c1n[nH]c(=S)[nH]c1=O", "T/C": "104 % of control"}
{"MOLECULE": "CN(c1ccccc1)C(C#N)CC(C)(C)C (stereo unspecified)", "T/C": "107 % of control"}
{"MOLECULE": "Cc1nc(Nc2ccc(F)cc2)c2c(C)c[nH]c2n1", "T/C": "88 % of control"}

Provide T/C value for the following molecule: `C=Cc1c2ccccc2cc2ccccc12`
106 % of control

Provide T/C value for the following molecule: CSCCC(NC(=O)C(CC(C)C)NC(=O)OC(C)(C)C)C(N)=O (stereo not drawn) (Boc-Leu-Met-NH2; configuration not given here)
91 % of control

Provide T/C value for the following molecule: CCC1C2CCCCN3C(C4CC(C)C(=O)O4)CC(C4C(C)C(=O)OC14)C23 (stereo unspecified)
96 % of control

Provide T/C value for the following molecule: `Cc1ccnc(NCCCNc2nccc(C)n2)n1`
96 % of control

Provide T/C value for the following molecule: `CCCc1c(Cl)[nH]c(=O)n(C)c1=O`
111 % of control

Provide T/C value for the following molecule: `O=C1c2ccccc2C(=O)C1c1ccc2c(ccc3ccccc32)n1`
88 % of control

Provide T/C value for the following molecule: Nc1nc2c(ncn2C2OC(CO)C(O)C2O)c(=O)o1 (stereo unspecified)
112 % of control

Provide T/C value for the following molecule: CC1=CC(C)(C(Cl)(Cl)Cl)C(C)=CC1=O (stereo unspecified)
99 % of control

Provide T/C value for the following molecule: `CN(C)Cc1nsc(N(C)C)n1`
97 % of control

Provide T/C value for the following molecule: CC(C)CC(NC(=O)C(Cc1ccccc1)NC(=O)C1CCCN1)C(=O)OC(C)(C)C (stereo not drawn) (H-Pro-Phe-Leu-OtBu; configuration not given here)
94 % of control
